src = PubChem BioAssay AID488803

# assay target: UniProtKB P35414
# Sequence (P35414 whole entry, looked up): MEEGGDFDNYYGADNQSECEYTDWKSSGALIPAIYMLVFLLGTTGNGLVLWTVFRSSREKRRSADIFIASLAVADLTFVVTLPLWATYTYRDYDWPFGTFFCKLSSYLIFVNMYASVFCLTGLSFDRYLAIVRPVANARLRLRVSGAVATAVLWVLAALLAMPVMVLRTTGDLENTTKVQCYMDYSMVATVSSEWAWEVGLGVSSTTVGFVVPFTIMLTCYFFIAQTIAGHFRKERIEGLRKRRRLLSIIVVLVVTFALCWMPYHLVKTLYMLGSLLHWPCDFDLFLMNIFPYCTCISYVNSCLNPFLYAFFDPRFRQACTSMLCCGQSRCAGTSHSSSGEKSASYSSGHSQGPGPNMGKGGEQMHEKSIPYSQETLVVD
# assay name: apelin receptor inhibitor analogs – cell-based, luminescence, set 2, SAR follow-up (AID 488803)
# reported conditions: CHO-K1 APJ PathHunter beta-arrestin, antagonist
The source made the active and inactive calls.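 How the source made its calls: active means mean IC50 below 10 µM; inactive means the rest.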
Return exactly one item of active, inactive

Cc1ccnc(SCc2cc(=O)c(OC(=O)c3ccc(C(F)(F)F)cc3)co2)n1    inactive

Outcome logged for `Cc1ccc(NCC(=O)c2ccccc2)cc1` in this assay:
active

Outcome logged for `Cc1ccnc(SCc2cc(=O)c(OC(=O)c3cc(Cl)ccc3[N+](=O)[O-])co2)n1` in this assay:
inactive

Outcome logged for `C=CCOc1cccc(CSc2nc(C)cc(C)n2)c1` in this assay:
inactive

Outcome logged for `O=c1cc(CSc2ncccn2)occ1O` in this assay:
inactive

Outcome logged for `Cc1ccc(C(=O)Oc2coc(CSc3ncccn3)cc2=O)cc1` in this assay:
inactive

Outcome logged for `Cc1ccc(C(=O)Oc2coc(CSc3ncccn3)cc2=O)cc1C` in this assay:
inactive

Outcome logged for `Cc1ccnc(SCc2cc(=O)c(OC(=O)c3ccccc3C)co2)n1` in this assay:
inactive

Outcome logged for `COc1cccc(C(=O)Oc2coc(CSc3nccc(C)n3)cc2=O)c1` in this assay:
inactive

Outcome logged for `C=CCOc1ccc(CSc2nccc(C)n2)cc1` in this assay:
inactive
